assay notes: self-splicing fitness, log relative to wild type (ln ratio); higher = more splicing; Tetrahymena group I intron in knt gene, E. coli kanamycin selection, DiMSum; sequences stand for … in CUCUCU…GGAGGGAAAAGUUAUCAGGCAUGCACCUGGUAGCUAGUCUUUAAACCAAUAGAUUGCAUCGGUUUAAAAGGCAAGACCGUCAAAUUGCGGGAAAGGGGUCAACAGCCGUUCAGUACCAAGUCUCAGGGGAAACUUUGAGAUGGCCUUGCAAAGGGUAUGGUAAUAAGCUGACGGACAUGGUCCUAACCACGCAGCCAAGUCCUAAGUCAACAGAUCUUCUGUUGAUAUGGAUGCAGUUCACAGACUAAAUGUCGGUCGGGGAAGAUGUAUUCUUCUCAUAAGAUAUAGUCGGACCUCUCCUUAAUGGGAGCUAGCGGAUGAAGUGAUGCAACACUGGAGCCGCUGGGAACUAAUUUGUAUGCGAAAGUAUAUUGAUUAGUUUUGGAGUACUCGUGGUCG;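 further: selection with 25 µg/mL kanamycin versus none on LB agar overnight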
condition notes: 37 °C
endpoint label: self-splicing fitness (ln)

residue sequence | measurement
UCAUAGCAAUAUUACGCACG | -0.462
UGUAAGCAAUAUUACGACUC | -0.632
CGAGAGCAAUAUUACGUAAC | -1.98
UAUGAGCAAUAUUACGAUAG | -0.767
AACGAGCAAUAUUACGACGC | -0.785
GAUCAGCAAUAUUACGUGCC | -0.652
UUGCAGCAAUAUUACGACGA | 0.407
UGGAAGCAAUAUUACGCAAC | -2.05

GET /value?item= `AUCCAGCAAUAUUACGAGUU` &field=self-splicing fitness (ln) returns -0.782

Data point: `UCACAGCAAUAUUACGAUCA` ; self-splicing fitness (ln) = -0.503

---

assay notes: self-splicing fitness, log relative to wild type (ln ratio); higher = more splicing; Tetrahymena group I intron in knt gene, E. coli kanamycin selection, DiMSum; sequences stand for … in CUCUCU…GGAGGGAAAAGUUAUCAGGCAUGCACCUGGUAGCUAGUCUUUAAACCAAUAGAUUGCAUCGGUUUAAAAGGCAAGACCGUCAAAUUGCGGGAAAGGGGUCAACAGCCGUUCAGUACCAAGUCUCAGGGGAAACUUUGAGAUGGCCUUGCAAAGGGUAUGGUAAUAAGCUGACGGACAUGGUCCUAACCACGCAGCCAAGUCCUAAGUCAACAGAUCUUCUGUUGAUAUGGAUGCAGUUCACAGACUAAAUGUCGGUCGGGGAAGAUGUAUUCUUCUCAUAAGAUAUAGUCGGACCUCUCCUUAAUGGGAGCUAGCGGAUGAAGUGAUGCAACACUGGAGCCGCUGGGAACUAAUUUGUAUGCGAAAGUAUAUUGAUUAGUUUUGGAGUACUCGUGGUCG
condition notes: 37 °C
Using self-splicing fitness (ln) as the sorting value, the categories are low: < -2; moderate: ≥ -2 and < -1; high: ≥ -1

residue sequence | class
UAGUAGCAAUAUUACGACGA | high
UCAAAGCAAUAUUACGUCAU | low
AUCCAGCAAUAUUACGGUGA | moderate
UGAGAGCAAUAUUACGAGAG | moderate

Bin this entry: `ACCUAGCAAUAUUACGUAAU`
high

Which self-splicing fitness (ln) category applies to `UUACAGCAAUAUUACGGAGC` here?
moderate

Lab note: which band did `UUCCAGCAAUAUUACGAAGG` land in?
low

Which category fits this record: `UAGGAGCAAUAUUACGGGUU`
low

Pick a category. Item: `ACUAAGCAAUAUUACGACUU`
high

Bin this entry: `UCGGAGCAAUAUUACGUUAG`
low

---

A collection of sequences and their measured self-splicing fitness (ln)
assay notes: self-splicing fitness, log relative to wild type (ln ratio); higher = more splicing; Tetrahymena group I intron in knt gene, E. coli kanamycin selection, DiMSum; sequences stand for … in CUCUCU…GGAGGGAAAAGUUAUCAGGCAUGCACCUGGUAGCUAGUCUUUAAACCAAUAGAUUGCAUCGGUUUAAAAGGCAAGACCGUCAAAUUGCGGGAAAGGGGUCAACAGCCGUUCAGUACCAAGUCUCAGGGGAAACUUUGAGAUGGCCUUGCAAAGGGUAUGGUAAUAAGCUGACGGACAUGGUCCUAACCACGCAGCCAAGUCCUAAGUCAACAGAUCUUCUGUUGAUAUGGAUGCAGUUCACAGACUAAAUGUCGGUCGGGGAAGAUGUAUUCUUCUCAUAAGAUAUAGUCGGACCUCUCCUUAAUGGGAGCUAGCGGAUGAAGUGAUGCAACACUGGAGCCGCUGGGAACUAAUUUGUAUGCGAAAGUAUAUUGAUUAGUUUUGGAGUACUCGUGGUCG
condition notes: 30 °C
Would you mind answering with just the numeric figure?

residue sequence | endpoint label | measurement
UAUAAGCAAUAUUACGAAGA | self-splicing fitness (ln) | -2.72
UAGUAGCAAUAUUACGAAGU | self-splicing fitness (ln) | -2.42
AGUUAGCAAUAUUACGGUUG | self-splicing fitness (ln) | -3.09
GCUUAGCAAUAUUACGAAAA | self-splicing fitness (ln) | -1.6
GAGUAGCAAUAUUACGAGCA | self-splicing fitness (ln) | -2.06

Lab note: measured self-splicing fitness (ln) of `GCCCAGCAAUAUUACGCGCC` was -4.19

sequence `CCAGAGCAAUAUUACGAGGG` , self-splicing fitness (ln) observed: -4.31

So for `CGGCAGCAAUAUUACGGUGA` , the logged self-splicing fitness (ln) turned out to be -3.35

Query `GUGGAGCAAUAUUACGGAGG` yields self-splicing fitness (ln) of -2.41

---

assay notes: self-splicing fitness, log relative to wild type (ln ratio); higher = more splicing; Tetrahymena group I intron in knt gene, E. coli kanamycin selection, DiMSum; sequences stand for … in CUCUCU…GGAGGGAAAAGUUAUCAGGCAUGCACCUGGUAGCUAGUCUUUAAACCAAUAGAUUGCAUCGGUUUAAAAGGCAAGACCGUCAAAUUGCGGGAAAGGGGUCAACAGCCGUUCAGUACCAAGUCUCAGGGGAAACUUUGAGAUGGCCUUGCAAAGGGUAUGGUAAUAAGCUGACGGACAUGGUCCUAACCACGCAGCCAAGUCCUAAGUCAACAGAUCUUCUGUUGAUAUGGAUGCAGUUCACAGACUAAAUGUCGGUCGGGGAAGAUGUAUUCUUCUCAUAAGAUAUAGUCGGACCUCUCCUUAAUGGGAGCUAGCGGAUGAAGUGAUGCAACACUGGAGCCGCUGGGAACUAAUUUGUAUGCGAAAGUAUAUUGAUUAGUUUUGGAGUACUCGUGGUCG
condition notes: 37 °C
Measured self-splicing fitness (ln) of individual entries
Could you keep your reply to the number by itself?

Would you please look over these solved cases?
residue sequence | measurement
GGUAAGCAAUAUUACGUAAC | -0.278
GCGAAGCAAUAUUACGUUGG | -2.97
ACUGAGCAAUAUUACGGAAU | -1.87
GUGGAGCAAUAUUACGUGUA | -2.85
GAGAAGCAAUAUUACGUGCU | -0.848
CUCGAGCAAUAUUACGAUUU | -2.91

Could you now consider this next sequence?
# self-splicing fitness (ln) of `UUUGAGCAAUAUUACGCAUG` = -0.524

---

Recorded measurements of self-splicing fitness (ln), one per entry
assay notes: self-splicing fitness, log relative to wild type (ln ratio); higher = more splicing; Tetrahymena group I intron in knt gene, E. coli kanamycin selection, DiMSum; sequences stand for … in CUCUCU…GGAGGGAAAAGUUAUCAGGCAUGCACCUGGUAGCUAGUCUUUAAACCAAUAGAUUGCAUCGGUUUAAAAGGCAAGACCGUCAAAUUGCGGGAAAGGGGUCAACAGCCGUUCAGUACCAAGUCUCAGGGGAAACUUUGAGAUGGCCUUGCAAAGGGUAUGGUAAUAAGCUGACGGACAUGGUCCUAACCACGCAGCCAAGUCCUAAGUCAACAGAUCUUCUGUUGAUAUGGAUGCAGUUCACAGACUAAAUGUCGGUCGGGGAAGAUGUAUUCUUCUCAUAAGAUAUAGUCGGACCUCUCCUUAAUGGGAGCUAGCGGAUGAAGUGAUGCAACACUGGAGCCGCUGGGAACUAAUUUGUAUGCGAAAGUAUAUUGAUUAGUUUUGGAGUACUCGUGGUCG
condition notes: 37 °C

Please review the following examples before continuing.
residue sequence | self-splicing fitness (ln)
CCUGAGCAAUAUUACGGGUC | -2.87
GAAAAGCAAUAUUACGCCGA | -0.824

// switching to the query sequence
Record summary for `UUCUAGCAAUAUUACGGUGU` : reported self-splicing fitness (ln) = -2.91

---

assay notes: self-splicing fitness, log relative to wild type (ln ratio); higher = more splicing; Tetrahymena group I intron in knt gene, E. coli kanamycin selection, DiMSum; sequences stand for … in CUCUCU…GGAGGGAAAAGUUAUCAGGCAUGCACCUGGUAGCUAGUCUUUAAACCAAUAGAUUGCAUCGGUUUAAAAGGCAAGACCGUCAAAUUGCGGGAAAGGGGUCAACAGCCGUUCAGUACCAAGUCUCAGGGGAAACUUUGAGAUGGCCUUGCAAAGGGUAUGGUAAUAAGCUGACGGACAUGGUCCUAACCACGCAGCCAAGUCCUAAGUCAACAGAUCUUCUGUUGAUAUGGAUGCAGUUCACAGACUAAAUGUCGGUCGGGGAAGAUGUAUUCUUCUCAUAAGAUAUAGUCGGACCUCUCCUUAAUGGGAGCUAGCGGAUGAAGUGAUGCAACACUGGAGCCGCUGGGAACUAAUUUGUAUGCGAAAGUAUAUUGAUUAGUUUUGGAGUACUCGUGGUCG
condition notes: 37 °C
Outcome label depends on self-splicing fitness (ln) relative to -2: at/above gives label 1, below gives label 0.

Consider the worked cases shown below.
residue sequence | class
UUUCAGCAAUAUUACGUAAC | label 0
GUUAAGCAAUAUUACGGUCG | label 1
GCUAAGCAAUAUUACGCCUG | label 1
UGUUAGCAAUAUUACGAUGU | label 1
AAAGAGCAAUAUUACGUGUG | label 0
GUAAAGCAAUAUUACGUUUU | label 1

Consider the record given below.
Evaluate `GUGGAGCAAUAUUACGUCGA` : self-splicing fitness (ln) at minimum -2?
label 1

Source of measurements: the supplement of paper PMC7877785
